target: Axl (Homo sapiens (Human)); test: Phospho-Akt in-cell Western assay (Axl-antibody cross-linking stimulation); format: cell-based; conditions: inhibition of Axl activity, Hela cells, phospho-Akt readout; Table 1, formula (Ia1)
Sequence (P30530 26-894): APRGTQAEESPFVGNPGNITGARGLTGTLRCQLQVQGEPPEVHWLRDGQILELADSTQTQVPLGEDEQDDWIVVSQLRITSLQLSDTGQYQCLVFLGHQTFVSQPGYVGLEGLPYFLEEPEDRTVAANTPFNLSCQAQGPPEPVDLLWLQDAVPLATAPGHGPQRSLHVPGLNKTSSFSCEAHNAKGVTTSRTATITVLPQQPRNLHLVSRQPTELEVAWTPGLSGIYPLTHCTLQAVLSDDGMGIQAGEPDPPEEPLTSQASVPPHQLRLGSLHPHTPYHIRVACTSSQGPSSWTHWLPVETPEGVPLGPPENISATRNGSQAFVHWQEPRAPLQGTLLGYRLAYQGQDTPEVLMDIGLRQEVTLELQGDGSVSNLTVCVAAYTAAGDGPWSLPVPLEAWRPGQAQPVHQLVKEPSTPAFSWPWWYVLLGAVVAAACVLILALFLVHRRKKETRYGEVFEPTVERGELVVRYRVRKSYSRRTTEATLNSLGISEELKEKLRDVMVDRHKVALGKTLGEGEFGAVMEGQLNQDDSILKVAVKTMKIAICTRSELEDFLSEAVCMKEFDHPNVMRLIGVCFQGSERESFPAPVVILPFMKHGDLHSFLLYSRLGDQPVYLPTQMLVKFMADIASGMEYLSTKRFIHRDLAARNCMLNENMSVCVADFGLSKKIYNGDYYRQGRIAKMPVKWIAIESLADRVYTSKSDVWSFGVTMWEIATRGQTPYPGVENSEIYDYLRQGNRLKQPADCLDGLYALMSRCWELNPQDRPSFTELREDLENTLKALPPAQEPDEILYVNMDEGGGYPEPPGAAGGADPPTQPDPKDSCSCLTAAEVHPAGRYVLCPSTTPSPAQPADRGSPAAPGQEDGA
pIC50: −log10 of the molar value.
The following compounds are listed with their measured pIC50 values.

>  <Compound>
Nc1nc(Nc2ccc(OCCN3CCCC3)c(F)c2)nn1-c1nc2ccccc2s1

>  <Target or test system>
Axl (Homo sapiens (Human))

>  <Quantity>
pIC50

>  <Endpoint value>
> 6.00

$$$$
>  <Compound>
Nc1nc(Nc2ccc(OCCN3CCCC3)cc2)nn1-c1nc(Cl)nc2ccccc12

>  <Target or test system>
Axl (Homo sapiens (Human))

>  <Quantity>
pIC50

>  <Endpoint value>
> 6.00

$$$$
>  <Compound>
CC1CCCN1CCOc1ccc(Nc2nc(N)n(-c3cnc4ccccc4n3)n2)cc1 (stereo not drawn)

>  <Target or test system>
Axl (Homo sapiens (Human))

>  <Quantity>
pIC50

>  <Endpoint value>
> 6.00

$$$$
>  <Compound>
Nc1nc(Nc2ccc(OCCN3CCCC3)cc2)nn1-c1ncnc2sccc12

>  <Target or test system>
Axl (Homo sapiens (Human))

>  <Quantity>
pIC50

>  <Endpoint value>
> 6.00

$$$$
>  <Compound>
Nc1nc(Nc2ccc(OCCN3CCCC3)cc2)nn1-c1nccc2ccsc12

>  <Target or test system>
Axl (Homo sapiens (Human))

>  <Quantity>
pIC50

>  <Endpoint value>
> 6.00

$$$$
>  <Compound>
Nc1nc(Nc2ccc(OCCN3CCCC3)cc2)nn1-c1nc2ccccc2[nH]1

>  <Target or test system>
Axl (Homo sapiens (Human))

>  <Quantity>
pIC50

>  <Endpoint value>
< 4.70

$$$$
>  <Compound>
Nc1nc(Nc2ccc(OCCN3CCCC3)cc2)nn1-c1ccc2ccccc2n1

>  <Target or test system>
Axl (Homo sapiens (Human))

>  <Quantity>
pIC50

>  <Endpoint value>
> 6.00

$$$$
>  <Compound>
Nc1nc(Nc2ccc(OCCN3CCCCC3)cc2)nn1-c1ccccc1F

>  <Target or test system>
Axl (Homo sapiens (Human))

>  <Quantity>
pIC50

>  <Endpoint value>
< 4.70

$$$$

Alright, here's another compound for you.
// Nc1nc(Nc2ccc(OCCN3CCCC3)cc2)nn1-c1ccccc1F : pIC50 value = < 4.70

====

target: Axl (Homo sapiens (Human)); test: Phospho-Akt in-cell Western assay (Axl-antibody cross-linking stimulation); assay type: cell-based; conditions: inhibition of Axl activity, Hela cells, phospho-Akt readout; Table 5, formula (Ia3)
pIC50: −log10 of the molar value.
Quantity: pIC50

Examples from the recorded data:
>  <Compound>
COc1cc2ncnc(-n3nc(Nc4ccc(OC5CCCN(C)C5)cc4)nc3N)c2cc1OC (centres unmarked)

>  <Quantity>
pIC50

>  <Endpoint value>
> 6.00

$$$$
>  <Compound>
COc1cc2ncnc(-n3nc(Nc4ccc(N5CCC(N6CCCCC6)CC5)c(F)c4)nc3N)c2cc1OC

>  <Quantity>
pIC50

>  <Endpoint value>
> 6.00

$$$$
>  <Compound>
CN1CCC(c2ccc(Nc3nc(N)n(-c4nccc5ccccc45)n3)cc2)CC1

>  <Quantity>
pIC50

>  <Endpoint value>
> 6.00

$$$$
>  <Compound>
CN1CCCC(Oc2ccc(Nc3nc(N)n(-c4nccc5ccccc45)n3)cc2)C1 (centres unmarked)

>  <Quantity>
pIC50

>  <Endpoint value>
> 6.00

$$$$
>  <Compound>
CC(C)c1ccc(-n2nc(Nc3ccc(N4CCOCC4)cc3)nc2N)cc1

>  <Quantity>
pIC50

>  <Endpoint value>
< 4.70

$$$$

Lab note: compound Cc1csc2c(-n3nc(Nc4ccc(N5CCC(N6CCCCC6)CC5)c(F)c4)nc3N)nc(Cl)nc12 tested on Axl (Homo sapiens (Human)); recorded pIC50 was > 6.00

Measured pIC50 (Axl (Homo sapiens (Human))), entry Nc1nc(Nc2ccc(N3CCOCC3)c(F)c2)nn1-c1nccc2ccccc12 : > 6.00

Measured pIC50 for this entry Nc1nc(Nc2cccc(O)c2)nn1-c1ccccn1 on Axl (Homo sapiens (Human)): < 4.70
